Target: Kappa-type opioid receptor (Homo sapiens, UniProt P41145)
Sequence (P41145 whole entry): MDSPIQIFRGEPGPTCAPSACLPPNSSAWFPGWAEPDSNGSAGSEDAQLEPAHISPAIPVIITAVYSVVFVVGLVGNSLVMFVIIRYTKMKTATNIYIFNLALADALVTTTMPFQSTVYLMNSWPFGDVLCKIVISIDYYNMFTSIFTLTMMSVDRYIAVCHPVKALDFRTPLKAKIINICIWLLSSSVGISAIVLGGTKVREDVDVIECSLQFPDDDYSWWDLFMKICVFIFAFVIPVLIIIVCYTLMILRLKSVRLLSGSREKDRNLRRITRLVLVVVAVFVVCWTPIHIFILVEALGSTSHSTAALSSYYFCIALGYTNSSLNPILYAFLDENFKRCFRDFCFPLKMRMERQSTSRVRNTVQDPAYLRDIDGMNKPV
Test: DRUGMATRIX: Opiate kappa (OP2, KOP) radioligand binding (ligand: [3H] Diprenorphine)
Type: cell membranes, HEK293, Membrane
Settings: hek293; Not Active = under 50% inhibition at 10 µM
result_type: IC50

INSERT INTO measurements (smiles_notation, result_type, test_result) VALUES
  ('CC[C@]1(O)C[C@H]2CN(CCc3c([nH]c4ccccc34)[C@@](C(=O)OC)(c3cc4c(cc3OC)N(C=O)[C@H]3[C@@](O)(C(=O)OC)[C@H](OC(C)=O)[C@]5(CC)C=CCN6CC[C@]43[C@@H]65)C2)C1', 'IC50', 'Not Active'),
  ('CC1(C)S[C@@H]2[C@H](NC(=O)Cc3ccccc3)C(=O)N2[C@H]1C(=O)O', 'IC50', 'Not Active'),
  ('Nc1nc2c(ncn2CCC(CO)CO)c(=O)[nH]1', 'IC50', 'Not Active');

---

Biological target: Carbonic anhydrase 2 (Homo sapiens)
Test: DRUGMATRIX: Carbonic Anhydrase II enzyme inhibition (substrate: 4-Nitrophenyl acetate (4-NPA))
Assay type: tissue-based, Erythrocyte
Conditions: erythrocyte; Not Active = under 50% inhibition at 10 µM
result_type: IC50

INSERT INTO assay_data (compound, result_type, test_result) VALUES
  ('NCCCCCC(=O)O [AMINOCAPROIC ACID]', 'IC50', 'Not Active'),
  ('C[C@H]1O[C@@H](O[C@H]2[C@@H](O)C[C@H](O[C@H]3[C@@H](O)C[C@H](O[C@H]4CC[C@@]5(C)[C@H](CC[C@@H]6[C@@H]5C[C@@H](O)[C@]5(C)[C@@H](C7=CC(=O)OC7)CC[C@]65O)C4)O[C@@H]3C)O[C@@H]2C)C[C@H](O)[C@@H]1O [DIGOXIN]', 'IC50', 'Not Active'),
  ('Cc1c(C)c2c(c(C)c1O)CC[C@@](C)(CCC[C@H](C)CCC[C@H](C)CCCC(C)C)O2 [ALPHA-TOCOPHEROL]', 'IC50', 'Not Active'),
  ('CC(=O)[C@@]1(O)CC[C@H]2[C@@H]3C[C@H](C)C4=CC(=O)CC[C@]4(C)[C@H]3CC[C@@]21C', 'IC50', 'Not Active'),
  ('Cc1cccc(N(C)C(=S)Oc2ccc3ccccc3c2)c1 [TOLNAFTATE]', 'IC50', 'Not Active'),
  ('Cc1oncc1C(=O)Nc1ccc(C(F)(F)F)cc1 [LEFLUNOMIDE]', 'IC50', 'Not Active'),
  ('COc1ccc(C[C@H]2NC[C@H](O)[C@H]2OC(C)=O)cc1 [ANISOMYCIN]', 'IC50', 'Not Active'),
  ('N=C(N)NCCN1CCCCCCC1 [GUANETHIDINE]', 'IC50', 'Not Active'),
  ('NC[C@H]1CC[C@H](C(=O)O)CC1 [TRANEXAMIC ACID]', 'IC50', 'Not Active'),
  ('COc1nc(C)nc(Cl)c1NC1=NCCN1 [MOXONIDINE]', 'IC50', 'Not Active'),
  ('CN(C)CCCN1c2ccccc2Sc2ccccc21 [PROMAZINE]', 'IC50', 'Not Active'),
  ('CC1=C2C(=CO[C@H](C)[C@H]2C)C(O)=C(C(=O)O)C1=O [CITRININ]', 'IC50', 'Not Active'),
  ('Cc1ccc2cc3c(ccc4ccccc43)c3c2c1CC3 [3-METHYLCHOLANTHRENE]', 'IC50', 'Not Active'),
  ('c1ccc([C@H]2CN3CCSC3=N2)cc1 [LEVAMISOLE]', 'IC50', 'Not Active'),
  ('C[C@]12CC[C@@H]3c4ccc(O)cc4CC[C@H]3[C@@H]1CCC2=O [ESTRONE]', 'IC50', 'Not Active'),
  ('CCCC1O[C@@H]2C[C@H]3[C@@H]4CCC5=CC(=O)C=C[C@]5(C)[C@H]4[C@@H](O)C[C@]3(C)[C@]2(C(=O)CO)O1 (stereo partly drawn) [BUDESONIDE]', 'IC50', 'Not Active'),
  ('CC(C)N1CCN(c2ccc(OCC3COC(Cn4cncn4)(c4ccc(Cl)cc4Cl)O3)cc2)CC1 (stereo not drawn) [TERCONAZOLE]', 'IC50', 'Not Active'),
  ('N[C@@H]1[C@H]2CN(c3nc4c(cc3F)c(=O)c(C(=O)O)cn4-c3ccc(F)cc3F)C[C@@H]12 [TROVAFLOXACIN]', 'IC50', 'Not Active');
